test system: HOP-62; experiment: NCI tumour cell line growth inhibition, 48 h
Active and inactive are the calls of the source. No stated cut-off is given here; in the data, active = GI50 up to about 1.1 µM and inactive = higher.
Catalogue of compounds with associated GI50

// solved cases for GI50 follow
Compound	GI50
Cc1ccc(C(=O)N2c3ccccc3N(C)n3cccc3C2CC(=O)O)cc1 (stereo unspecified)	> 100 µM (inactive)
O=C1C2=C(C3=NCCc4c[nH]c1c43)c1c(cc(Br)c(O)c1Br)CCN2	25.3 µM (inactive)
O=C(C#Cc1ccccc1)N1c2ccccc2CC1c1c[nH]c2ccccc12 (stereo unspecified)	8.95 µM (inactive)
Cn1c(=O)c2c(nc(NCCCCl)n2CC(=O)NCCCCl)n(C)c1=O	> 100 µM (inactive)
Cc1ccc(C)c(N2C(=O)C(=O)C(c3nc4ccccc4s3)/C(=N/N)C2=O)c1 (stereo unspecified)	> 100 µM (inactive)
CNC(=O)N(C1=NCC(C)S1)c1ccc(C)c(C)c1 (stereo unspecified)	5.98 µM (inactive)
Sc1ncc2[nH]nnc2n1	> 100 µM (inactive)
CC(=O)OCCOCNC(=S)N/N=C/c1ccc([N+](=O)[O-])s1	> 100 µM (inactive)
CC(=O)/C(=C/NC(=S)Nc1ccccc1)C(=O)Nc1ccccc1C	> 100 µM (inactive)
O=C(CSc1nc2nncc-2c(O)[nH]1)c1ccc(Cl)cc1	> 100 µM (inactive)

The reported GI50 of the compound O=C(CCCC1Cc2ccccc2C1=O)c1ccccc1 (stereo unspecified) was > 100 µM (inactive)
